# method: Bidirectional permeability across ex vivo porcine intestinal segments
# Type: in vitro ADME, pig
# settings: pig, pH 7.4; all porcine segments (duodenum, jejunum, ileum), A to B; read-out: Papp (A to B), range over porcine segments
Each entry below carries its recorded Papp A→B.

CC(C)NCC(O)COc1cccc2ccccc12 (centres unmarked) :: 7.76 to 9.6 ×10⁻⁶ cm/s

Then there is this molecule:
// query Quickly give me recorded Papp A→B for "COC(=O)c1ccccc1-c1c2ccc(=N)cc-2oc2cc(N)ccc12"
// result 5.6 to 7.6 ×10⁻⁶ cm/s

* * *

# method: Bidirectional permeability across ex vivo porcine intestinal segments
# Format: in vitro ADME, pig
# settings: pig, pH 7.4; all porcine segments (duodenum, jejunum, ileum), B to A; read-out: Papp (B to A), range over porcine segments
outcome_measure: Papp B→A

CC(C)NCC(O)COc1cccc2ccccc12 (centres unmarked) [PRN, Propranolol] :: 1.85 to 5.5 ×10⁻⁶ cm/s

Now look at this entry.
// query For the compound COC(=O)c1ccccc1-c1c2ccc(=N)cc-2oc2cc(N)ccc12 [Rho-123, rhodamine 123] , give its measured Papp B→A value.
// result 1.8 to 3.6 ×10⁻⁶ cm/s

* * *

# method: Bidirectional permeability across Caco-2 monolayers on Transwell inserts
# Type: in vitro ADME, human
# settings: human, pH 7.4; Caco-2 on Transwell, B to A / A to B
outcome_measure: efflux ratio at 10 µM
# respond with the number and nothing more

// query Answer with reported efflux ratio at 10 µM of "COC(=O)c1ccccc1-c1c2ccc(=N)cc-2oc2cc(N)ccc12"
// result 4.6

* * *

# method: Bidirectional permeability across Caco-2 cultures on collagen-coated PET nanofibrous scaffolds
# Format: in vitro ADME, human
# settings: human; Caco-2 on nanofiber scaffolds, basolateral to apical, pH 7.4, mean (±SD)
outcome_measure: Papp B→A (×10⁻⁶ cm/s)
Only the number, expressed in ×10⁻⁶ cm/s, is required.

// query Read the entry CC(C)NCC(O)COc1cccc2ccccc12 (stereo not shown) and write its reported Papp B→A.
// result 75.1

* * *

# method: Bidirectional permeability across ex vivo porcine intestinal segments
# Format: in vitro ADME, pig
# settings: pig, pH 7.4, porcine intestinal segments; read-out: recovery (range)
outcome_measure: recovery

A selection of reference data follows.
COC(=O)c1ccccc1-c1c2ccc(=N)cc-2oc2cc(N)ccc12 :: 37 to 54%
CC(C)NCC(O)COc1ccc(CC(N)=O)cc1 (stereo not drawn) :: 70 to 95%

Field: next molecule
// query Read off the recorded recovery for CC(C)NCC(O)COc1cccc2ccccc12 (stereo not drawn)
// result 35 to 75%

* * *

# method: Bidirectional permeability across Caco-2 monolayers on Transwell inserts
# Format: in vitro ADME, human
# settings: human; Caco-2 on Transwell, apical to basolateral, pH 7.4, mean (±SD)
outcome_measure: Papp A→B (×10⁻⁶ cm/s)
Please reply with the bare figure in ×10⁻⁶ cm/s and do not write the unit itself.

// query Retrieve Papp A→B measured for CC(C)NCC(O)COc1cccc2ccccc12 (centres unmarked) and print it.
// result 30.7

// query Consider the compound "COC(=O)c1ccccc1-c1c2ccc(=N)cc-2oc2cc(N)ccc12" and give its recorded Papp A→B.
// result 0.82

Data origin: paper PMC6524416
